I'd be grateful if you could share measured Affinity ELISA CPE mutant ratio (1:9, pH 6.0/7.4) for these entries.
target: Axl (UniProt P30530); assay: ELISA, 1:9 dilution
Sequence (P30530 26-451 limits assumed): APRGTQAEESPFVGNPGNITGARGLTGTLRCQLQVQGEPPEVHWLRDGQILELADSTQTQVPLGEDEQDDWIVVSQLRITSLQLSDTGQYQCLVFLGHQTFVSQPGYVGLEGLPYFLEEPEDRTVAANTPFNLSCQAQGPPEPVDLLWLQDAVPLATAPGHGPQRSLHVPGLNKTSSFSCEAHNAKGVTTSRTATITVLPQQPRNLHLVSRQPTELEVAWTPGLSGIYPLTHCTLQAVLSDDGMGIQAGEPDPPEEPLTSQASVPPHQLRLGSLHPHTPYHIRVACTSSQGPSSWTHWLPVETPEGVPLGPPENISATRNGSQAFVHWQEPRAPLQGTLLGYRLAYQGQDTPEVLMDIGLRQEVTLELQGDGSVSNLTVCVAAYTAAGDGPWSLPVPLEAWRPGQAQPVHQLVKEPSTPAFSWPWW

### Prompt For HC-H100R (antibody, V domains shown) VH: EVQLVQSGAEVKKPGATVKISCKVSGYSFTGHTMNWIRQPPGKGLEWIGLIKPSNGGTSYNQKFKGRVTISADKSISTAYLQWSSLKASDTAMYYCAHGRYESYFAMDYWGQGTLVTVSS VL: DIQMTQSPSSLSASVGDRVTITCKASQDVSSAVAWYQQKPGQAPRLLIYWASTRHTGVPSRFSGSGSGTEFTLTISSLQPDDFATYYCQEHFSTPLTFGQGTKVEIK , what is its reported Affinity ELISA CPE mutant ratio (1:9, pH 6.0/7.4)?
### Response 2.51

### Prompt Continue with HC-F105S (antibody, V domains shown) VH: EVQLVQSGAEVKKPGATVKISCKVSGYSFTGHTMNWIRQPPGKGLEWIGLIKPSNGGTSYNQKFKGRVTISADKSISTAYLQWSSLKASDTAMYYCAHGHYESYSAMDYWGQGTLVTVSS VL: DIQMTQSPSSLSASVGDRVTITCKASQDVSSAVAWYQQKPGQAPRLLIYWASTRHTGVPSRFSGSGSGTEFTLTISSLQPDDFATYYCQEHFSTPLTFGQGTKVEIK
### Response 4.54

### Prompt Continue with LC-T094C (antibody, V domains shown) VH: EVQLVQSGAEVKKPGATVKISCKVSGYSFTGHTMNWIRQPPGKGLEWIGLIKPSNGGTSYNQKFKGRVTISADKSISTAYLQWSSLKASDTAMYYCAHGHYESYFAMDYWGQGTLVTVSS VL: DIQMTQSPSSLSASVGDRVTITCKASQDVSSAVAWYQQKPGQAPRLLIYWASTRHTGVPSRFSGSGSGTEFTLTISSLQPDDFATYYCQEHFSCPLTFGQGTKVEIK
### Response 1.77
